test: Antioxidant activity in Sprague-Dawley rat erythrocytes assessed as peroxyl radical-induced hemolysis after 1 hr; type: functional, Erythrocyte
# Lookup of reported Activity keyed by entry
Express the result in % but write the number alone.

Some molecules with known Activity results, for comparison:
Recorded result, CCSc1nc2nc3c(c(-c4ccc(Cl)cc4)c2c(=O)n1C)CCC/C3=C/c1ccc(Cl)cc1 , Activity: 5.3

Recorded result, COc1ccc(/C=C/C(=O)c2sc3nc4nc5c(c(-c6ccc(Cl)cc6)c4c(=O)n3c2C)CCC/C5=C/c2ccc(Cl)cc2)cc1 , Activity: 5.9

Recorded result, COc1ccc(C2NOc3c2sc2nc4nc5c(c(-c6ccc(Cl)cc6)c4c(=O)n32)CCC/C5=C/c2ccc(Cl)cc2)cc1 (stereo not given) , Activity: 7.27

Recorded result, CN(C)c1ccc(/C=c2\sc3nc4nc5c(c(-c6ccc(Cl)cc6)c4c(=O)n3c2=O)CCC/C5=C/c2ccc(Cl)cc2)cc1 , Activity: 7.27

Recorded result, Nc1ccc(/C=C2/CCCc3c2nc2nc4s/c(=C\c5cccs5)c(=O)n4c(=O)c2c3-c2ccc(N)cc2)cc1 , Activity: 6.36

Recorded result, CCn1c(SC)nc2nc3c(c(-c4ccc(Cl)cc4)c2c1=O)CCC/C3=C/c1ccc(Cl)cc1 , Activity: 3.93

Recorded result, CSc1nc2nc3c(c(-c4ccc(Cl)cc4)c2c(=O)[nH]1)CCC/C3=C/c1ccc(Cl)cc1 , Activity: 4.24

Recorded result, COc1ccc(/C=c2\sc3nc4nc5c(c(-c6ccc(Cl)cc6)c4c(=O)n3c2=O)CCC/C5=C/c2ccc(Cl)cc2)cc1 , Activity: 4.54

New cases:
Recorded result, C/C(=N/O)c1sc2nc3nc4c(c(-c5ccc(Cl)cc5)c3c(=O)n2c1C)CCC/C4=C/c1ccc(Cl)cc1 , Activity: 7.22

Recorded result, Nc1ccc(/C=C2/CCCc3c2nc2nc4sc5c(n4c(=O)c2c3-c2ccc(Cl)cc2)ONC5c2cccs2)cc1 (stereo not given) , Activity: 4.64
